Target: T1, mouse serum albumin (mouse, UniProt P07724 25-608)
T1 construct: also called MSA; MuSA
T1 sequence (P07724 25-608 limits assumed): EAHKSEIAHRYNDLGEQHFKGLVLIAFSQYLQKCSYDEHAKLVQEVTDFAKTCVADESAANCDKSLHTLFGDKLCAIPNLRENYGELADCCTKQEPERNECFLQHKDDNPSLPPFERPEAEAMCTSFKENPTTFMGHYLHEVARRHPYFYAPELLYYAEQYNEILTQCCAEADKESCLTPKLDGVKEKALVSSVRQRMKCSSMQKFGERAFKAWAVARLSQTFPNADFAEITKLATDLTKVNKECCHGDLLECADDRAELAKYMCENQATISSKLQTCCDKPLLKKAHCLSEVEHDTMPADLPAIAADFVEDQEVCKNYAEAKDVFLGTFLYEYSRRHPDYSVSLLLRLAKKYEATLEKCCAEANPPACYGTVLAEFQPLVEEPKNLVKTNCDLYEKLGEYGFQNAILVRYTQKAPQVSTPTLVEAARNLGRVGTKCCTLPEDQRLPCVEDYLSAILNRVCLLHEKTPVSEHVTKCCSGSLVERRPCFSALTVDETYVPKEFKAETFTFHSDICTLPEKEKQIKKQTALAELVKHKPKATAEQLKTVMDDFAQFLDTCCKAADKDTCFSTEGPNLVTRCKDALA
Test: SPR, albumin immobilized;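 note: biacore SPR with human, rhesus or mouse serum albumin amine-coupled to the chip (about 1200 RU), 3 min association, 6-10 min dissociation, reference-subtracted traces fitted with a 1:1 model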
Property: kon

[in] May I ask what kon has been recorded for PCSK9-PKE2 tandem 4472_E06 (designed binder, The real molecule is ONE polypeptide: PCSK9 domain, undisclosed linker I (a code letter), PKE2 domain. It is given here as two chains because the linker letters are unknown., also called 4427_E06; not shown: The inter-domain linker) PCSK9 domain: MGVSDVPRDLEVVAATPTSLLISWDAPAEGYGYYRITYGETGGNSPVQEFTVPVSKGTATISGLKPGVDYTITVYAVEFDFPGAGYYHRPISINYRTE PKE2 domain: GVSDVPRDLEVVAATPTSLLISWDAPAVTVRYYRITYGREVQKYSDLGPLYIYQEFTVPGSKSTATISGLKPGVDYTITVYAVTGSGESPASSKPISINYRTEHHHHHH ?
[out] 15000 M⁻¹ s⁻¹
